This collection of values is drawn from PubChem BioAssay (NCI).

- System: HL-60(TB) leukemia
- Test: NCI-60 one-dose screen, 48 h (100 = growth as untreated, 0 = no growth, -100 = all killed)
- Condition Label: 10 µM unless noted
Compounds without any hit were thinned out: in the full panel of roughly 83,000, 20% have a hit.
The entries below are paired with their reported growth.
The figure you give is taken to be in %; do not add the unit.

Reference set (3 entries):
CCCCC[n+]1ccc(SCC(=O)N(C)c2ccc(Oc3ccccc3)cc2)c2ccccc21
3.74
COC(CC(F)F)c1cn(S(=O)(=O)c2ccc(C)cc2)c2ccccc12 (centres undefined)
8.92
CNC(=O)c1cc(Oc2ccc3c(c2)sc2nc(-c4ccc(N)cc4)cn23)ccn1
2.04

Lab note: next compound to report on.
stdin: Provide measured growth value, entry: COc1ccc(NC(=O)c2ccc(Nc3ncnc4[nH]c(C)c(C)c34)cc2)cc1
stdout: 89.1
